Each entry below lists one item and its recorded Ki value.
Target: recombinant human ALK5 (TGF-βR1) protein (Homo sapiens, UniProt P36897)
Sequence (P36897 34-503): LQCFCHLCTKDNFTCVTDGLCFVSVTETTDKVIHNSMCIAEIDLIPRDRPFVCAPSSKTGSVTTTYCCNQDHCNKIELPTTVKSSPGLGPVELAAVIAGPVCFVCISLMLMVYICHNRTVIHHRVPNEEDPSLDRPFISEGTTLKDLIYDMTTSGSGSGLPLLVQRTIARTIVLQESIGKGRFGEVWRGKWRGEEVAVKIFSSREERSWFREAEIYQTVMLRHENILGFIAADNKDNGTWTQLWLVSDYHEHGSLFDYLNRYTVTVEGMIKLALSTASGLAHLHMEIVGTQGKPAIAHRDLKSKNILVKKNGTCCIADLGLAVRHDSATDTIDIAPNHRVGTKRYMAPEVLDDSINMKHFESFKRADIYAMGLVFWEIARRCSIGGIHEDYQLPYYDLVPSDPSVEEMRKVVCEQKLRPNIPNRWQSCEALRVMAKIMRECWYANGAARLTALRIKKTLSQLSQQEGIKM
Assay: Biochemical ALK5 (TGF-βR1) assay to measure pKi (LANCE Ultra ULight kinase assay)
Settings: apparent pKi, converted from pIC50 by Cheng-Prusoff

Before answering, review these 5 worked examples.
COMPOUND | OBS VALUE
Cc1cccc(-c2nccc(Nc3ccnc(Nc4ccc(N5CCNCC5)c(CC(=O)OCC(C)C)c4)n3)n2)n1 | 0.0398 to 0.316 nM
Cc1cccc(-c2nccc(Nc3ccnc(Nc4cccc(C(=O)O)c4)n3)n2)n1 | 0.398 to 3.16 nM
Cc1cccc(-c2nc(C)cc(Nc3ccnc(Nc4ccc(N5CCNCC5)cc4)n3)n2)n1 | 0.0398 to 0.316 nM
Cc1cccc(-c2nc(Nc3ccnc(Nc4ccc(N5CCOCC5)cc4)n3)c3nn[nH]c3n2)n1 | 0.0398 to 0.316 nM
Cc1nc(-c2nccc(Nc3ccnc(Nc4ccc(N5CCOCC5)cc4)n3)n2)ccc1F | 0.398 to 3.16 nM

Ki recorded for this compound, Cc1cccc(-c2nccc(Nc3ccnc(Nc4ccc(NS(=O)(=O)c5c[nH]cn5)cc4)n3)n2)n1 , is 0.398 to 3.16 nM

GET /value?item= Cc1cccc(-c2nccc(Nc3ccnc(Nc4ccc(N5CCN(C6CCOC6=O)CC5)cc4)n3)n2)n1 (stereo not drawn) &field=Ki returns 0.0398 to 0.316 nM

Entry Cc1cccc(-c2nccc(Nc3ccnc(Nc4ccc(N5CCNCC5)c(CC(=O)O[C@@H]5CCN(C)C5)c4)n3)n2)n1 ; Ki = 0.0398 to 0.316 nM

The compound listed as Cc1cccc(-c2nc(Nc3ccnc(Nc4ccc(NC(=O)C5CNC5)cc4)n3)c3cccn3n2)n1 has a reported Ki of 0.0398 to 0.316 nM

###

Biological target: recombinant human ALK5 (TGF-βR1) protein (Homo sapiens)
Assay: Biochemical ALK5 (TGF-βR1) assay to measure pKi (LANCE Ultra ULight kinase assay)
Conditions: apparent pKi, converted from pIC50 by Cheng-Prusoff
MEASURED PARAMETER: Ki

Consider the worked cases shown below.
COMPOUND | OBS VALUE
Cc1cccc(-c2nccc(Nc3ccnc(Nc4ccc(Cl)c(CN5C6CCC5CNC6)c4)n3)n2)n1 | 0.0398 to 0.316 nM
Cc1cccc(-c2nccc(Nc3ccnc(Nc4nc(C(=O)NCC5CNC5)cs4)n3)n2)n1 | ≤ 0.0316 nM
Cc1cccc(-c2nccc(Nc3ccnc(Nc4ccc(NS(=O)(=O)CC5CCCNC5)cc4)n3)n2)n1 (centres unmarked) | 0.0398 to 0.316 nM
Cc1cccc(-c2nccc(Nc3ccnc(Nc4ccc(N5CCC(N)CC5)cc4)n3)n2)n1 | 0.0398 to 0.316 nM
Cc1cccc(-c2nccc(Nc3ccnc(Nc4ccc(NS(=O)(=O)C5CNC5)cc4)n3)n2)n1 | 0.398 to 3.16 nM
COC(=O)C1CNCCN1Cc1ccc(Nc2nccc(Nc3ccnc(-c4cccc(C)n4)n3)n2)cc1 (centres unmarked) | 0.0398 to 0.316 nM

The reported value for Cc1cccc(-c2nccc(Nc3ccnc(Nc4cccc(NC(=O)C5(CO)CNC5)c4)n3)n2)n1 in terms of Ki is 0.0398 to 0.316 nM

Memo: Cc1ccc(O)cc1-c1nccc(Nc2ccnc(Nc3ccc(N4CCNCC4)cc3)n2)n1 , reported Ki: 0.398 to 3.16 nM
